# assayed-system: T1, human blood protein factor XII (FXII) (human, UniProt P00748 20-615)
# T1 construct: mature; Single-chain zymogen as it circulates in plasma; also called human FXII; plasma-derived FXII
# T1 sequence (looked up): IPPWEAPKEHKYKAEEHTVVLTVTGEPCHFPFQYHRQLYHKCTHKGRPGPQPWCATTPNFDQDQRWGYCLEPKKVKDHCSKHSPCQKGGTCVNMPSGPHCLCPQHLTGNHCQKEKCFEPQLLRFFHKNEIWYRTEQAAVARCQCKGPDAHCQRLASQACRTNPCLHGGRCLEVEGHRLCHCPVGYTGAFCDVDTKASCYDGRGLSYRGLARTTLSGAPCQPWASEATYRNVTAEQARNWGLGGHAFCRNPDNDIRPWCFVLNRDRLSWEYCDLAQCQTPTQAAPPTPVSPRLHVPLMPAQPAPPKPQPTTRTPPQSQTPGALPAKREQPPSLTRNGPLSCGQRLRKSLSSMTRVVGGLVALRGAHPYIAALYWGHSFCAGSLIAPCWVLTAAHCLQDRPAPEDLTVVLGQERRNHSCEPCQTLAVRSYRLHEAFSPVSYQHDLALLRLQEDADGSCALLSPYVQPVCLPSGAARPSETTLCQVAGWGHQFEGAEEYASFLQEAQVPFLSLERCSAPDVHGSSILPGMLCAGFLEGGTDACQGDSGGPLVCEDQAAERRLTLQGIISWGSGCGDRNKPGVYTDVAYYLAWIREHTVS
# experimental-protocol: ELISA, human FXII coated at 1 µg/mL, goat anti-human IgG-HRP detection
experimental-endpoint: EC50

If you can, please state the reported EC50 value of humanized 5C12 antibody HC1 + LC3 (PP13895) (antibody, human IgG4 S228P, kappa, V domains shown, Human IgG4 (S241P hinge modified), expressed in HEK293; also called H7880 + L7882) VH: QVQLQESGPGLVKPSQTLSLTCTVSGYSITSGYSWHWIRQHPGKGLEWIGYIQYSGNTNSNPSLKSRVTISRDTSKNQFSLKLSSVTAADTAVYYCARWGSFDYWGQGTLVTVSS VL: DIVLTQTPATLSLSPGERATLSCRASSSVNYLHWYQQKPGQAPKRLIYDTSKLATGIPARFSGSGSGTDYTLTISSLEPEDFAVYYCQQWSGNPPTFGQGTRLEIKR .
9.02 ng/mL
